- subjectOfTest: Estrogen receptor (Homo sapiens) (UniProt P03372)
- Sequence (P03372 whole entry, looked up): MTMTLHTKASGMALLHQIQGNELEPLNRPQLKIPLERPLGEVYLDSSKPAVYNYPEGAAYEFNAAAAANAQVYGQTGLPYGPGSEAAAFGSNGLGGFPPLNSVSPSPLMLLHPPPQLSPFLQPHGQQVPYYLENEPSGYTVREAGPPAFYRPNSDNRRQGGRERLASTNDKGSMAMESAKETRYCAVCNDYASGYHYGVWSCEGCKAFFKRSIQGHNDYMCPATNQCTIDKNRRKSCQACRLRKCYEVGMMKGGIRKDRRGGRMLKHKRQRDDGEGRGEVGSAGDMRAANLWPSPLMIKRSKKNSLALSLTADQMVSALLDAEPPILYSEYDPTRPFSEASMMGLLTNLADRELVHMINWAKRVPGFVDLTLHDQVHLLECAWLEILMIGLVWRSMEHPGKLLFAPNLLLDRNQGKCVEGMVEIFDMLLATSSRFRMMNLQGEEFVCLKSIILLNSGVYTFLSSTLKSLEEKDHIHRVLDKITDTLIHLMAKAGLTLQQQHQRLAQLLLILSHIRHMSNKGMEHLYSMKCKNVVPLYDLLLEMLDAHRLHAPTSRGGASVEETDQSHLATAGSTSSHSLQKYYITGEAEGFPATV
- protocolSummary: OT_ER_ERaERa_1440: Odyssey Thera (OT) 24-hour HEK293T Protein-Complementation Assay for Estrogen Receptor-alpha/-alpha Homodimer (AID 2283349);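 further: hits raise fluorescence above DMSO for agonists and antagonists alike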
Activity calls are given as the source filed them. How the source made its calls: active means hit-call score of the fitted dose curve at least 0.9, where 1 is the maximum; inconclusive means response in the unintended direction; inactive means score below 0.9.
Possible outcomes: active, inactive

> print(dat)
                                    compound     group
 1                    O=Nc1ccc(Nc2ccccc2)cc1  inactive
 2                              CCCCCCCCCC=O  inactive
 3                              NCCCN1CCOCC1  inactive
 4                       CCCCCCCCCCCCCC(=O)O  inactive
 5                     c1ccc(CCCc2ccccn2)cc1  inactive
 6                 CC(=O)C=CC1=C(C)CCCC1(C)C  inactive
 7              O=C1c2ccccc2C(=O)N1SC1CCCCC1  inactive
 8  BrC1CCC(Br)C(Br)CCC(Br)C(Br)CCC1Br (stereo unspecified)  inactive
 9                     CC(C)(C)C(=O)c1ccccc1  inactive
10                         CCCCOCCOCCOCCOCCO  inactive
11                             OCCOCCOCCOCCO  inactive
12                              C=C(C)C(=O)O  inactive
13                          CC(C)c1cccc(O)c1  inactive
14                               CCC/C=C/C=O  inactive
15  CCN(CC)c1ccc2c(-c3ccccc3C(=O)O)c3ccc(=[N+](CC)CC)cc-3oc2c1    active
16                          CC(=O)OCCOC(C)=O  inactive

---

- protocolSummary: ATG_NFI_CIS: Attagene CIS-FACTORIAL HepG2 Assay for human Nuclear Factor I (NFI) (AID 2282989)
- protocolConditions: HepG2 cis-regulatory reporter, NFI response element transcription; actives raise or lower the signal
The source made the active and inactive calls. The calls were made as follows: active = hit-call score of the fitted dose curve at least 0.9, where 1 is the maximum; inactive = score below 0.9.
Possible outcomes: y for active, n for inactive

> print(dat)
                                 chemsmiles  group
1                    O=Nc1ccc(Nc2ccccc2)cc1      y
2               CC(=O)/C=C/C1=C(C)CCCC1(C)C      n
3                 O=C(Oc1ccccc1)c1ccc(O)cc1      n
4      CC(C)=CCC[C@](C)(O)[C@@H]1CC=C(C)CC1      n
5                 OCC(CO)(CO)COCC(CO)(CO)CO      n
6               Cc1cccc(Nc2ccccc2C(=O)O)c1C      n
7  CC(C)(C#N)c1cc(Cn2cncn2)cc(C(C)(C)C#N)c1      n

---

- Read-out: Interferon-gamma inducible Protein 10 (IP10), CXCL10 (gene 3627)
- protocolSummary: BSK_BE3C_IP10: BioMAP Diversity Plus: BE3C Assay for Interferon-gamma inducible Protein 10 (IP10) Biomarker Activity (AID 2283034)
- protocolConditions: primary human bronchial epithelial cells; actives raise or lower the signal
Calls of active or inactive are those of the source. Rule for the calls: active = hit-call score of the fitted dose curve at least 0.9, where 1 is the maximum; inactive = score below 0.9.
Possible outcomes: active, inactive

> print(dat)
                                   compound     group
1          c1ccc2c(c1)c1cccc3ccc4cccc2c4c31  inactive
2                 Nc1cc([N+](=O)[O-])ccc1Cl  inactive
3     CC(C)(COC(=O)c1ccccc1)COC(=O)c1ccccc1  inactive
4                        COC(=O)c1ccc(C)cc1  inactive
5                               CCCCCCCCC=O  inactive
6  CN(CCOc1ccc(CC2SC(=O)NC2=O)cc1)c1ccccn1 (configuration not stated)    active
7  O=C(O)c1cn(-c2ccc(F)cc2)c2cc(N3CCNCC3)c(F)cc2c1=O  inactive

---

- subjectOfTest: AR (gene 367)
- protocolSummary: ACEA_AR_antagonist_80hr: ACEA Biosciences xCELLigence Real-Time Cell Analysis on Androgen Receptor Antagonism for Proliferation (AID 2283787);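 further: 22Rv1 human prostate cancer cells with growth followed by electrical impedance; hits lower the impedance growth signal relative to DMSO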
Records with an inconclusive call do not appear. Calls of active or inactive are those of the source. How the source made its calls: active means hit-call score of the fitted dose curve at least 0.9, where 1 is the maximum; inconclusive means response in the unintended direction; inactive means score below 0.9.
Possible outcomes: Yes for active, No for inactive

> print(dat)
                                 chemsmiles  subjectoftest  group
1                             COc1ccc(O)cc1  AR (gene 367)     No
2                              NCCCN1CCOCC1  AR (gene 367)     No
3  CCCCCCCCCCCCCCCC(=O)OC[C@H](O)[C@H]1OC(=O)C(O)=C1O  AR (gene 367)    Yes
4           C[Si](O[Si](C)(C)C)O[Si](C)(C)C  AR (gene 367)     No

---

- Read-out: Interleukin-8 (IL8), CXCL8 (gene 3576)
- protocolSummary: BSK_SAg_IL8: BioMAP Diversity Plus: SAg Assay for Interleukin-8 (IL8) Biomarker Activity (AID 2283094)
- protocolConditions: primary human HUVEC with PBMC; actives raise or lower the signal
The source made the active and inactive calls. The calls were made as follows: active = hit-call score of the fitted dose curve at least 0.9, where 1 is the maximum; inactive = score below 0.9.
Possible outcomes: Yes = active, No = inactive

> print(dat)
                                 chemsmiles  group
1  OC[C@H]1O[C@H](O[C@]2(CCl)O[C@H](CCl)[C@@H](O)[C@@H]2O)[C@H](O)[C@@H](O)[C@H]1Cl     No
2  O=C(O)C[C@H](O)C[C@H](O)/C=C/c1c(C2CC2)nc2ccccc2c1-c1ccc(F)cc1    Yes
3  C#C[C@]1(O)CC[C@H]2[C@@H]3CCC4=Cc5oncc5C[C@]4(C)[C@H]3CC[C@@]21C     No
4                         CCC(=O)OCc1ccccc1     No
5  C=C(C)C(=O)O[C@H]1C[C@@H]2CC[C@@]1(C)C2(C)C    Yes

---

- subjectOfTest: Nuclear respiratory factor 1 (Homo sapiens) (UniProt Q16656)
- Sequence (Q16656 whole entry, looked up): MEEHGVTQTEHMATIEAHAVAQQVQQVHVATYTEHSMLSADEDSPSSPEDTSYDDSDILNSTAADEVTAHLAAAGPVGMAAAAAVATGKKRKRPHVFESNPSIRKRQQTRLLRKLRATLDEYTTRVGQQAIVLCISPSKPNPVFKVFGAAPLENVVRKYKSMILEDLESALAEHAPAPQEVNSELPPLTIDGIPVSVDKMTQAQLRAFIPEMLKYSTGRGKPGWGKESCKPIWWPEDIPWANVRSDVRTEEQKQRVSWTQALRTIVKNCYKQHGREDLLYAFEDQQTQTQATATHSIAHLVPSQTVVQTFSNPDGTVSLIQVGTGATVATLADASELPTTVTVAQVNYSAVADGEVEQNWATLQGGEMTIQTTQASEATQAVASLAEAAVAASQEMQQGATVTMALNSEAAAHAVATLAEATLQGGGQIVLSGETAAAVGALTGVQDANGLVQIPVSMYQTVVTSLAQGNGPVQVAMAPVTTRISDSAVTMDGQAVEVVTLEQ
- protocolSummary: ATG_NRF1_CIS: Attagene CIS-FACTORIAL HepG2 Assay for human Nuclear Respiratory Factor 1 (NRF1) Orphan Gene (AID 2282987)
- protocolConditions: HepG2 NRF1 cis-element reporter, Attagene multiplex; actives raise or lower the signal
Active and inactive are the calls of the source. How the source made its calls: active means hit-call score of the fitted dose curve at least 0.9, where 1 is the maximum; inactive means score below 0.9.
Possible outcomes: active, inactive

> print(dat)
                                    compound     group
 1                            CCCCCOC(=O)CCC  inactive
 2  N#Cc1ccc(CC(=NNC(=O)Nc2ccc(OC(F)(F)F)cc2)c2cccc(C(F)(F)F)c2)cc1  inactive
 3      Clc1ccc2c(c1)C(N1CCNCC1)=Nc1ccccc1O2  inactive
 4                              Cc1ccccc1C=O  inactive
 5                    O=Nc1ccc(Nc2ccccc2)cc1    active
 6                                       C=O  inactive
 7              CC(C)[C@@H]1CC[C@@H](C)CC1=O  inactive
 8             CSc1nc(NC2CC2)nc(NC(C)(C)C)n1  inactive
 9  Cc1ccc(Nc2ccc(O)c3c2C(=O)c2ccccc2C3=O)cc1  inactive
10                     CC(C)(CO)[N+](=O)[O-]  inactive
11  CCC(C(=O)NC(N)=O)c1ccccc1 (centres undefined)  inactive
12                          CC(=O)Nc1ccccc1O  inactive
13  C=CC(=O)OCC(O)COc1ccccc1 (centres undefined)  inactive
14             COC(C)CCO (centres undefined)  inactive
15                           CN(C)CCOCCN(C)C  inactive
16  C=C(C)C(=O)O[C@H]1C[C@@H]2CC[C@@]1(C)C2(C)C  inactive
17  O=[N+]([O-])c1ccc(Nc2ccc(Nc3ccccc3)c(S(=O)(=O)O)c2)c([N+](=O)[O-])c1  inactive
18                          CCCCCCCCCOC(C)=O  inactive
19                       NC(=O)Nc1ccc(Cl)cc1  inactive
20                            Clc1cccc(Cl)n1  inactive
21                 Nc1cc([N+](=O)[O-])ccc1Cl  inactive
22                     C=C(C)C(=O)OCc1ccccc1  inactive
23  CC(C)(Oc1ccc(CCNC(=O)c2ccc(Cl)cc2)cc1)C(=O)O  inactive
24                          NC(=O)c1ccccc1Cl  inactive
25                  Cc1cccc(C)c1[N+](=O)[O-]  inactive
26                               OCCN1CCNCC1  inactive
27                              NCCCN1CCOCC1  inactive
28      CC(C)C1CCC(O)CC1 (centres undefined)  inactive
29                  CCn1c2ccccc2c2cc(N)ccc21  inactive

The origin of these recorded values is PubChem BioAssay (EPA / NIEHS).
